Tested on: MRC5
Experiment: Cytotoxic compound concentration to reduce neutral red uptake by 50% using MRC-5 cell line
Format: functional, Homo sapiens
readout-type: CC50% (µg/mL)
Answers are plain numbers, in µg/mL.

Worked examples, 2 molecules total:
> print(dat)
                              item.smiles  val
1  O=C1NCc2ccccc2OCCC/C=C/c2cncc3ccc1nc23  0.2
2   O=C1NCc2ccccc2OCC/C=C/c2cncc3ccc1nc23  1.8

Q: GET /values?readout=CC50%&item= Cc1cncc2ccc(C(=O)NCc3ccccc3OC(C)C)nc12
A: 2.4

* * *

Test system: Vero
Assay: Minimum cytotoxic compound concentration to induce microscopically detectable alteration of cell morphology, using Vero cell line
Type: functional, Chlorocebus sabaeus
Task for the reader: assign each of the following compounds its reported minimum cytotoxic concentration (MCC).

Give minimum cytotoxic concentration (MCC) for all compounds that follow.
1. O=C1NCc2ccccc2OCC/C=C/c2cncc3ccc1nc23
2. Nc1nc2c(ncn2COC(CO)CO)c(=O)[nH]1
3. O=C1NCc2ccccc2OCCC/C=C/c2cncc3ccc1nc23
4. Nc1ccn(C[C@@H](CO)OCP(=O)(O)O)c(=O)n1.O.O

A:
1. 6 µg/mL
2. >100 µg/mL
3. 25 µg/mL
4. >100 µg/mL
